Cited source for all entries: patent US20210278408A1

System: 407 cancer cell lines
Assay: Cell viability of cancer cell lines (IC50), CellTiter-Glo Viability Assay, 96 h
Format: cell-based
Conditions: NCI-H441 cells, 96 h; read-out: Absolute IC50
pIC50: −log10 of the molar value.
readout-kind: pIC50

• N.N.[Cl][Pt][Cl] [Cisplatin, reference compound] = 5.21

----------
Test system: 407 cancer cell lines
Assay: Cell viability of cancer cell lines (IC50), CellTiter-Glo Viability Assay, 96 h
Format: cell-based
Conditions: NCI-H3122 cells, 96 h; read-out: Absolute IC50
readout-kind: IC50 (µM)

- N.N.[Cl][Pt][Cl] [Cisplatin, reference compound]: 5.73

----------
Tested on: 407 cancer cell lines
Test: Cell viability of cancer cell lines (IC50), CellTiter-Glo Viability Assay, 96 h
Format: cell-based
Conditions: LN-229 cells, 96 h; read-out: Absolute IC50
pIC50: −log10 of the molar value.
readout-kind: pIC50

* N.N.[Cl][Pt][Cl] [Cisplatin, reference compound] | 5.11

----------
Tested on: 407 cancer cell lines
Assay: Cell viability of cancer cell lines (IC50), CellTiter-Glo Viability Assay, 96 h
Format: cell-based
Details: OVCAR-3 cells, 96 h; read-out: Absolute IC50
Description: Viability was determined by using the 50% inhibitory concentration (IC50) as determined with the CellTiter-Glo® Viability Assay (Promega). Experiments were initiated by first thawing and equilibrating the CellTiter-Glo® Buffer to room temperature. The lyophilized CellTiter-Glo® Substrate was also equilibrated to room temperature. […] Cells were harvested during the logarithmic growth period, counted, and the cell concentration adjusted to 4.44×10^4 cells/mL using culture medium. […]
pIC50: −log10 of the molar value.
readout-kind: pIC50

- N.N.[Cl][Pt][Cl] [Cisplatin, reference compound]: 5.29

----------
Test system: 407 cancer cell lines
Experiment: Cell viability of cancer cell lines (IC50), CellTiter-Glo Viability Assay, 96 h
Type: cell-based
Conditions: Reh; read-out: Absolute IC50
readout-kind: IC50 (nM)

• N.N.[Cl][Pt][Cl] [Cisplatin, reference compound] = 430

----------
Test system: 407 cancer cell lines
Assay: Cell viability of cancer cell lines (IC50), CellTiter-Glo Viability Assay, 96 h
Type: cell-based
Details: Caki-2; read-out: Absolute IC50
readout-kind: IC50 (µM)

- N.N.[Cl][Pt][Cl] [Cisplatin, reference compound]: 3.35

----------
Tested on: 407 cancer cell lines
Assay: Cell viability of cancer cell lines (IC50), CellTiter-Glo Viability Assay, 96 h
Format: cell-based
Conditions: Homo sapiens, NCI-H82, 96 h; read-out: Absolute IC50
pIC50: −log10 of the molar value.
readout-kind: pIC50

• Cc1nn(-c2nc(-c3ccc(C(F)(F)F)cc3)c(SC(C)C)s2)c(C(=O)O)c1-c1cccc(F)c1 = 6.12

----------
Tested on: 407 cancer cell lines
Assay: Cell viability of cancer cell lines (IC50), CellTiter-Glo Viability Assay, 96 h
Assay type: cell-based
Conditions: BxPC-3; read-out: Absolute IC50
readout-kind: IC50 (µM)

• N.N.[Cl][Pt][Cl] [Cisplatin, reference compound] = 1.27

----------
Test system: 407 cancer cell lines
Assay: Cell viability of cancer cell lines (IC50), CellTiter-Glo Viability Assay, 96 h
Format: cell-based
Conditions: RS4;11; read-out: Absolute IC50
readout-kind: IC50 (nM)

- N.N.[Cl][Pt][Cl] [Cisplatin, reference compound]: 330
